system tested: T1, human PSMA antigen (R&D SYSTEM, 4234-ZN-010) (human, UniProt Q04609 44-750)
T1 construct: bought antigen
T1 sequence (Q04609 44-750 limits assumed): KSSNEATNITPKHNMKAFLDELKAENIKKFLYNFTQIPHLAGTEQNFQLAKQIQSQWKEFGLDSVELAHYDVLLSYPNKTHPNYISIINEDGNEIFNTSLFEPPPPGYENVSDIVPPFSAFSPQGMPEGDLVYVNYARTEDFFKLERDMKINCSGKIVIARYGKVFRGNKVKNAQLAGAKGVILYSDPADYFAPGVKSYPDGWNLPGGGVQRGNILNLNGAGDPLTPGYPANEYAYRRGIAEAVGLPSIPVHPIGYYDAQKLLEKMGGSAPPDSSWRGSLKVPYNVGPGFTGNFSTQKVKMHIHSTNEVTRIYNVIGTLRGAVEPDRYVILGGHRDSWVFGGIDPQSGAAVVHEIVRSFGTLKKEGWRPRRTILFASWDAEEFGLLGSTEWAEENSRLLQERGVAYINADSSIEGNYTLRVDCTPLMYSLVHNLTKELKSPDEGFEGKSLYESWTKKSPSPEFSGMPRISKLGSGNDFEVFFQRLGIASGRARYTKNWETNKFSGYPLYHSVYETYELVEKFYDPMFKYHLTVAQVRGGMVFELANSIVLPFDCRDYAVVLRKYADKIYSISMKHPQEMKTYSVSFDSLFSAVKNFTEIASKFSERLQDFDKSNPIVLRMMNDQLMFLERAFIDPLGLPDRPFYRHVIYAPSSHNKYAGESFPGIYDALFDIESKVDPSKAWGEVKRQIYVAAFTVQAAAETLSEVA
measurement notes: ELISA, plate-bound PSMA antigen
Give EC50 for every item shown.
Numbers only, in µg/mL.

Known EC50 results, listed for orientation:
- binder: "hu46H2L2 (antibody, human IgG1, kappa, V domains shown) VH: EVQLVESGGGLVKPGGSLRLSCAASGFTFSNYGMSWVRQAPGKGLEWVSTIGSGGGYTYYSDSVKGRFTISRDNAKNSLYLQMNSLRAEDTAVYYCVRHPQIGYWGQGTLVTVSS VL: DIQMTQSPSSLSASVGDRVTITCKASQSVGTAVAWYQQKPGKAPKLLIYSASSRYTGVPSRFSGSGSGTDFTLTISSLQPEDFADYFCHQYSSYPLTFGGGTKVEIKR"
  units label: "µg/mL"
  EC50: 0.0365
- binder: "hu43H3L2 (antibody, human IgG1, kappa, V domains shown) VH: EVQFVESGGGLVQPGGSLRLSCAASGFTFSNYWMNWLRQAPGKGLEWVAQVRLKSDNYATHYAESVKGRFTISREDAKNSAYLQMNSLRAEDTAVYYCSENYYGPAGPFDFWGQGTTVTVSS VL: DIQMTQSPSSLSASVGDRVTITCKASQNVHTSVAWYQQKPGKSPKLLIYSASNRYSGVPSRFSGSGSGTDFTLTISSLQPEDVATYYCQQYSSYPLTFGQGTKLEIKR"
  units label: "µg/mL"
  EC50: 1.06

Now look at this entry.
Given item chi73 (antibody, human IgG1, kappa, V domains shown) VH: QVQLQQSGPELVKPGASVKISCKASGYAFSTSWMNWVKERPGKGLEWIGRIYPGDGDTKYNGKFQGKATLTADKSSSTAYMKLSSLTSEDSAVYFCVRSIYYLYYFDYWGQGTTLTVSS VL: DIQMTQPTSSLSASLGDRVTISCSTSQDIYNNLSWFQQKPDGTVRLLIYYTSSLHSGVPSRFSGSGSGTDYSLTISNLEPEDIATYYCQQYNNLPFTFGGGTNLEIRR , the value recorded as its EC50 is 0.029
